- Experiment description: Half life in human liver microsomes after 30 mins by LC/MS/MS analysis
- Format: ADME
Reported property: half-life (min)

Example entries and their recorded answers appear below.
CCS(=O)(=O)NCc1cncc(-c2c(C#N)c3ccc(Cl)cc3n2C)c1 77
CCS(=O)(=O)NCc1cncc(-c2cc3ccc(Cl)nc3n2C)c1 21
Cn1c(-c2cccnc2)c(C#N)c2ccc(Cl)cc21 259
Cn1c(-c2cccnc2)c(C#N)c2ccccc21 10

A: Cc1c(-c2cccnc2)n(C)c2ccccc12
B: CN(C)S(=O)(=O)Oc1cncc(-c2c(C#N)c3ccccc3n2C)c1
Query: Higher half-life: A or B ? Answer = label.
Result: A
